- System tested: monoclonal antibody mAB 198
- Test summary: peptide microarray, fluorescence, cyclic peptide
Where no end group is shown, it is not given here.
Kindly return YES if reported relative signal [%] is no lower than 20%; return NO if it is lower.

Q: Does RLRWNPADYHG (also: cyclic peptide, ring type and places not given here) have a reported relative signal [%] of at least 20%?
Result: NO

Q: Record: RPNPADY (also: cyclic peptide, ring type and places not given here) [RPNPADY, cyclic mimotope]
Result: NO

Q: Record: GGSLRVNPADY (also: cyclic peptide, mode of cyclisation not given here)
Result: YES

Q: Record: WNPDDYR (also: cyclic peptide, mode of cyclisation not given here) [WNPDDYR, cyclic mimotope]
Result: NO

Q: Record: VRLRWNPADYP (also: cyclic peptide, mode of cyclisation not given here)
Result: YES

Q: Record: NPADYGH (also: cyclic peptide, mode of cyclisation not given here) [NPADYGH, cyclic mimotope]
Result: NO

Q: Record: LRRNPAD (also: cyclic peptide, mode of cyclisation not given here) [LRRNPAD, cyclic mimotope]
Result: YES

Q: Record: GNPADYGGI (also: cyclic peptide, mode of cyclisation not given here)
Result: NO

Q: Record: LRGNPAD (also: cyclic peptide, mode of cyclisation not given here) [LRGNPAD, cyclic mimotope]
Result: NO

Q: Record: RINPADY (also: cyclic peptide, ring type and places not given here) [RINPADY, cyclic mimotope]
Result: YES

Q: Record: LRRNPADYG (also: cyclic peptide, mode of cyclisation not given here)
Result: YES

Q: Record: RLRWNPADYGP (also: cyclic peptide, ring type and places not given here)
Result: NO

Q: Record: SLRINPADY (also: cyclic peptide, mode of cyclisation not given here)
Result: YES

Q: Record: LRFNPAD (also: cyclic peptide, mode of cyclisation not given here) [LRFNPAD, cyclic mimotope]
Result: NO

Q: Record: SLRLNPADY (also: cyclic peptide, mode of cyclisation not given here)
Result: YES

Q: Record: GSLRWNPADYR (also: cyclic peptide, mode of cyclisation not given here)
Result: NO

Q: Record: GSLRWNPADYT (also: cyclic peptide, mode of cyclisation not given here)
Result: NO

Q: Record: RLRTNPADY (also: cyclic peptide, ring type and places not given here)
Result: NO

Q: Record: WNPADYP (also: cyclic peptide, mode of cyclisation not given here) [WNPADYP, cyclic mimotope]
Result: YES

Data provenance: patent US20230381328A1
